Please provide measured GI50 for the entries that follow.
- Test system: OVCAR-3
- Assay info: NCI tumour cell line growth inhibition, 48 h
Calls of active or inactive are those of the source. Rule as the data show it: active = GI50 up to about 1.1 µM and inactive = higher.

These recorded examples may help you get a feel for the data.
Compound	Result
N#CC(/N=N/c1ccccc1)c1nc2ccccc2o1 (stereo not given)	25.4 µM (inactive)
COc1cc(-c2c3c([nH]c(=O)c2C#N)-c2cc([N+](=O)[O-])ccc2CCC3)cc(OC)c1OC	15.5 µM (inactive)
COc1ccc(OC)c(CC(C)N)c1 (stereo not given)	> 100 µM (inactive)
CCc1ccccc1N1C(=O)C(=O)C(c2nc3ccccc3s2)C(=O)C1=O	80.4 µM (inactive)
SC[C@@H]1COC[C@H](CS)S1	> 100 µM (inactive)

Please look at the items below and tell me GI50 for each one, in order.
1. Nc1cc(S(=O)(=O)O)cc2ccc(S(=O)(=O)O)cc12
2. COc1cc(CC2c3cc(OC)c(OC)cc3CCN2C)c(Oc2cc3c(cc2OC)-c2c(OC)c(OC)c(OC)c4c2C(C3)N(C)CC4)cc1OC (stereo not given)
3. CC(=O)Oc1c(C)cc(-c2cc(C)c(OC(C)=O)c(C)c2)cc1C
4. CC(C)CCCC(C)[C@H]1CCC2[C@@H]3CCC4Nc5nocc5C[C@]4(C)C3CC[C@@]21C (stereo not given in full)
5. Nc1ccn(CCOC(=O)c2ccccc2)c(=O)n1

["> 100 µM (inactive)", "12.3 µM (inactive)", "90.2 µM (inactive)", "5.61 µM (inactive)", "> 100 µM (inactive)"]
